test_summary: Single dose study: plasma pharmacokinetics of eplerenone, open lactone ring form, spironolactone
condition_details: male, human, plasma, po, 10 mg
recorded_metric: concentration at 6 h (ng/mL)
Write it as a number; the unit ng/mL goes unstated.

Data request: Record request: concentration at 6 h value, item COC(=O)C1CC2=CC(=O)CCC2(C)C23OC2CC2(C)C(CC[C@@]24CCC(=O)O4)C13 (stereo partly shown) [eplerenone]
Data returned: 65.3

====

test_summary: Single dose study: plasma pharmacokinetics of eplerenone, open lactone ring form, spironolactone
condition_details: male, human, plasma, po, 1000 mg
recorded_metric: concentration at 0.5 h (ng/mL)
Write it as a number; the unit ng/mL goes unstated.

Data request: Record request: concentration at 0.5 h value, item COC(=O)C1CC2=CC(=O)CCC2(C)C23OC2CC2(C)C(CC[C@@]24CCC(=O)O4)C13 (stereo partly shown) [eplerenone]
Data returned: 3180

====

test_summary: Single dose study: plasma pharmacokinetics of eplerenone, open lactone ring form, spironolactone
condition_details: male, human, plasma, po, 1000 mg
recorded_metric: AUC(0-t) (ng·h/mL)
Write it as a number; the unit ng·h/mL goes unstated.

Data request: Record request: AUC(0-t) value, item COC(=O)C1CC2=CC(=O)CCC2(C)C23OC2CC2(C)C(CC[C@@]24CCC(=O)O4)C13 (stereo partly shown) [eplerenone]
Data returned: 56400

====

test_summary: Single dose study: plasma pharmacokinetics of eplerenone, open lactone ring form, spironolactone
condition_details: male, human, plasma, po, 1000 mg
recorded_metric: concentration at 48 h (ng/mL)
Write it as a number; the unit ng/mL goes unstated.

Data request: Record request: concentration at 48 h value, item COC(=O)C1CC2=CC(=O)CCC2(C)C23OC2CC2(C)C(CC[C@@]24CCC(=O)O4)C13 (stereo partly shown)
Data returned: 22.3

====

test_summary: ADME study of [14C]eplerenone oral solution: plasma, whole blood, saliva pharmacokinetics
Type: in vivo, humans
condition_details: male, human, plasma; 100 mg oral solution of [14C]eplerenone; 4.0 hours after dosing
recorded_metric: concentration at 4 h (ng/mL)
Write it as a number; the unit ng/mL goes unstated.

Data request: Record request: concentration at 4 h value, item COC(=O)C1CC2=CC(=O)CCC2(C)C23OC2CC2(C)C(CC[C@@]24CCC(=O)O4)C13 (stereo partly shown) [eplerenone]
Data returned: 1000

====

test_summary: ADME study of [14C]eplerenone oral solution: plasma, whole blood, saliva pharmacokinetics
Type: in vivo, humans
condition_details: male, human, plasma; 100 mg oral solution of [14C]eplerenone; 0.5 hours after dosing
recorded_metric: concentration at 0.5 h (ng/mL)
Write it as a number; the unit ng/mL goes unstated.

Data request: Record request: concentration at 0.5 h value, item COC(=O)C1CC2=CC(=O)CCC2(C)C23OC2CC2(C)C(CC[C@@]24CCC(=O)O4)C13 (stereo partly shown)
Data returned: 1340

====

test_summary: Effect of food study: plasma pharmacokinetics fasted vs high-fat breakfast
Format: in vivo, humans
condition_details: male, human, plasma, oral, 100 mg, 100 mg eplerenone capsule; Fasted Conditions; 2.0 hours after dosing
recorded_metric: concentration at 2 h (ng/mL)
Write it as a number; the unit ng/mL goes unstated.

Data request: Record request: concentration at 2 h value, item COC(=O)C1CC2=CC(=O)CCC2(C)C23OC2CC2(C)C(CC[C@@]24CCC(=O)O4)C13 (stereo partly shown)
Data returned: 1390

====

test_summary: Single dose study: plasma pharmacokinetics of eplerenone, open lactone ring form, spironolactone
condition_details: male, human, plasma, po, 1000 mg
recorded_metric: concentration at 32 h (ng/mL)
Write it as a number; the unit ng/mL goes unstated.

Data request: Record request: concentration at 32 h value, item COC(=O)C1CC2=CC(=O)CCC2(C)C23OC2CC2(C)C(CC[C@@]24CCC(=O)O4)C13 (stereo partly shown) [eplerenone]
Data returned: 61.7

====

test_summary: Single dose study: plasma pharmacokinetics of eplerenone, open lactone ring form, spironolactone
condition_details: male, human, plasma, po, 300 mg
recorded_metric: AUC(0-t)
Write the figure, then the unit, nothing else.

Data request: Record request: AUC(0-t) value, item COC(=O)C1CC2=CC(=O)CCC2(C)C23OC2CC2(C)C(CC[C@@]24CCC(=O)O4)C13 (stereo partly shown) [eplerenone]
Data returned: 18500 ng·h/mL

====

test_summary: Multiple dose study: plasma pharmacokinetics and urinary excretion
Type: in vivo, humans
condition_details: male, human, plasma, oral, 300 mg, eplerenone 300 mg Dose; Single Dose
recorded_metric: AUC
Write the figure, then the unit, nothing else.

Data request: Record request: AUC value, item COC(=O)C1CC2=CC(=O)CCC2(C)C23OC2CC2(C)C(CC[C@@]24CCC(=O)O4)C13 (stereo partly shown)
Data returned: 23900 ng·h/mL

====

test_summary: ADME study of [14C]eplerenone oral solution: plasma, whole blood, saliva pharmacokinetics
Assay type: in vivo, humans
condition_details: male, human, plasma; 100 mg oral solution of [14C]eplerenone; 8.0 hours after dosing
recorded_metric: concentration at 8 h (ng/mL)
Write it as a number; the unit ng/mL goes unstated.

Data request: Record request: concentration at 8 h value, item COC(=O)C1CC2=CC(=O)CCC2(C)C23OC2CC2(C)C(CC[C@@]24CCC(=O)O4)C13 (stereo partly shown)
Data returned: 391

====

test_summary: ADME study of [14C]eplerenone oral solution: plasma, whole blood, saliva pharmacokinetics
Type: in vivo, humans
condition_details: male, human; plasma; 100 mg eplerenone oral solution, single dose; read-out: Mean Residence Time
Experimental: An open-label, single dose study was employed to evaluate the absorption, distribution, metabolism and elimination profile of a single 100 mg dose of an oral solution of eplerenone. The study employed eight healthy male humans. […] Plasma, saliva, breath, urine and fecal samples were collected at predetermined intervals and analyzed for sample radioactivity and the concentration of eplerenone and its open lactone ring form. […]
recorded_metric: MRT (h)
Write it as a number; the unit h goes unstated.

Data request: Record request: MRT value, item COC(=O)C1CC2=CC(=O)CCC2(C)C23OC2CC2(C)C(CC[C@@]24CCC(=O)O4)C13 (stereo partly shown)
Data returned: 4.8

====

test_summary: Single dose study: plasma pharmacokinetics of eplerenone, open lactone ring form, spironolactone
condition_details: male, human, plasma, po, 300 mg
recorded_metric: concentration at 24 h (ng/mL)
Write it as a number; the unit ng/mL goes unstated.

Data request: Record request: concentration at 24 h value, item COC(=O)C1CC2=CC(=O)CCC2(C)C23OC2CC2(C)C(CC[C@@]24CCC(=O)O4)C13 (stereo partly shown) [eplerenone]
Data returned: 38.3

====

test_summary: Multiple dose study: plasma pharmacokinetics and urinary excretion
Type: in vivo, humans
condition_details: male, human, plasma, oral, 1000 mg, eplerenone 1000 mg Dose; Multiple Dose
recorded_metric: Cmax (ng/mL)
Write it as a number; the unit ng/mL goes unstated.

Data request: Record request: Cmax value, item COC(=O)C1CC2=CC(=O)CCC2(C)C23OC2CC2(C)C(CC[C@@]24CCC(=O)O4)C13 (stereo partly shown)
Data returned: 7390

====

test_summary: Single dose study: plasma pharmacokinetics of eplerenone, open lactone ring form, spironolactone
condition_details: male, human, plasma, po, 300 mg
Protocol: The pharmacokinetics, safety and antialdosterone activity of single 10, 50, 100, 300 and 1000 mg oral doses of eplerenone were evaluated in a single-center, randomized, double-blind, placebo-controlled study. The study employed seven parallel dose groups of eight healthy male humans. The eplerenone capsules administered corresponded to the capsules (or combinations of the capsules) disclosed in Examples 4, 5, 7 and 8 above. The placebo was a conventional capsule containing lactose. […]
recorded_metric: concentration at 2 h
Write the figure, then the unit, nothing else.

Data request: Record request: concentration at 2 h value, item COC(=O)C1CC2=CC(=O)CCC2(C)C23OC2CC2(C)C(CC[C@@]24CCC(=O)O4)C13 (stereo partly shown)
Data returned: 2780 ng/mL

====

test_summary: Single dose study: plasma pharmacokinetics of eplerenone, open lactone ring form, spironolactone
condition_details: male, human, in vivo, po, 50 mg
recorded_metric: concentration at 12 h (ng/mL)
Write it as a number; the unit ng/mL goes unstated.

Data request: Record request: concentration at 12 h value, item COC(=O)C1CC2=CC(=O)CCC2(C)C23OC2CC2(C)C(CC[C@@]24CCC(=O)O4)C13 (stereo partly shown)
Data returned: 49.4

====

test_summary: Single dose study: plasma pharmacokinetics of eplerenone, open lactone ring form, spironolactone
condition_details: male, human, plasma, po, 1000 mg
recorded_metric: concentration at 2 h (ng/mL)
Write it as a number; the unit ng/mL goes unstated.

Data request: Record request: concentration at 2 h value, item COC(=O)C1CC2=CC(=O)CCC2(C)C23OC2CC2(C)C(CC[C@@]24CCC(=O)O4)C13 (stereo partly shown)
Data returned: 5940
